Data credit: PubChem BioAssay AID2060503

Test system: 817829-284-R-J1-PDC complex spheroids, viability;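 note: spheroids exposed to agents for 7 days before readout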
Assay: Anticancer human tumor 817829-284-R-J1-PDC patient-derived colon adenocarcinoma cell line growth inhibition [GQUAD]; active = viability on the fitted dose curve at most 10% of control; inactive = the rest
Conditions: second compound 0.0316 µM; first compound 0.0316 µM
Hi there, use one of these labels in your reply, thanks! y = active, n = inactive

Query: Hello, I am checking results. What call was entered for COc1ncnc(C2CC2)c1-c1ncc2cnn(Cc3ccc(-c4nc(C(F)(F)F)cn4C(C)C)cc3)c2n1 + CN(C)c1ccc(Nc2c3ccc(NC(=O)CCN4CCCC4)cc3nc3cc(NC(=O)CCN4CCCC4)ccc23)cc1 ?
Response: n

Query: Hello, I am checking results. What call was entered for CC1COCCN1c1cc(C2(S(C)(=N)=O)CC2)nc(-c2ccnc3[nH]ccc23)n1 (centres undefined) + Cc1cnc(CNC(=O)c2c(=O)c3ccc(N4CCCN(C)CC4)nc3n3c2sc2ccccc23)cn1 ?
Response: n

Query: Hello, I am checking results. What call was entered for COc1cc(C2c3cc4c(cc3C(OC3OC5COC(C)OC5C(O)C3O)C3COC(=O)C23)OCO4)cc(OC)c1O (centres undefined) + Cc1cnc(CNC(=O)c2c(=O)c3ccc(N4CCCN(C)CC4)nc3n3c2sc2ccccc23)cn1 ?
Response: n

API: the following record is the query input.
Query: Hello, I am checking results. What call was entered for CC(=O)O[C@H]1C(=O)[C@@]2(C)[C@H]([C@H](OC(=O)c3ccccc3)[C@]3(O)C[C@H](OC(=O)[C@H](O)[C@@H](NC(=O)c4ccccc4)c4ccccc4)C(C)=C1C3(C)C)[C@]1(OC(C)=O)CO[C@@H]1C[C@@H]2O + Cc1[nH]c2ccc(F)cc2c1-c1nc2c3cccnc3c3ncccc3c2[nH]1 ?
Response: y
